Biological target: T1, C-terminal human Regnase-1 (amino acids 301 to 599) with N-terminal FLAG tag and C-terminal BirA recognition … (human, UniProt Q5D1E8 301-599)
T1 sequence: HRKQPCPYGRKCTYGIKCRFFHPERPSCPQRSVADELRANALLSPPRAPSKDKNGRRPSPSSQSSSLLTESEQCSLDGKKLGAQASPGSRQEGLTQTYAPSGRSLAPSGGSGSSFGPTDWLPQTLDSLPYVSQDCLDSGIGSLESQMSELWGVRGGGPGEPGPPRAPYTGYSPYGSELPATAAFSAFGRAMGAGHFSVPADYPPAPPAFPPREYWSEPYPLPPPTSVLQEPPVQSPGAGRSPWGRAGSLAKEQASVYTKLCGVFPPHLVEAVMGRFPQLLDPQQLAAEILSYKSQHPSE
Assay: cell-based or functional assay
Positions of bridges follow the written chain, without caps; N, C: chain ends. Non-standard residues stand in square brackets, D forms with d. *: point of attachment. NMeA = CN[C@@H](C)C(=O)O; Pyrrolidide = C1CCN(*)C1; dNMeA = CN[C@H](C)C(=O)O
Measured property: 50% inhibition concentration, Regnase-1 phosphorylation by TBK1 (AlphaScreen)

Below are worked cases with known answers.
- [dNMeA]EDTPEDDHD-Pyrrolidide (lactam N-10) [PP25]: 16.3 µM
- XRFGVWSWIYPD (HELM PEPTIDE1{[meA].R.F.G.V.W.S.W.I.Y.P.D.[C1CCN([*:1])C1]}$PEPTIDE1,PEPTIDE1,1:R1-12:R3$$$V2.0; SMILES CC[C@H](C)[C@@H]1NC(=O)[C@H](Cc2c[nH]c3ccccc23)NC(=O)[C@H](CO)NC(=O)[C@H](Cc2c[nH]c3ccccc23)NC(=O)[C@H](C(C)C)NC(=O)CNC(=O)[C@H](Cc2ccccc2)NC(=O)[C@H](CCCNC(=N)N)NC(=O)[C@H](C)N(C)C(=O)C[C@@H](C(=O)N2CCCC2)NC(=O)[C@@H]2CCCN2C(=O)[C@H](Cc2ccc(O)cc2)NC1=O) [PP14]: 6.8 µM

Next up:
[NMeA]YIWDFFGDLD-Pyrrolidide (lactam N-11) [PP4] has a reported 50% inhibition concentration, Regnase-1 phosphorylation by TBK1 (AlphaScreen) of 35.9 µM
